# testTarget: UniProtKB P63073
# Sequence (P63073 whole entry): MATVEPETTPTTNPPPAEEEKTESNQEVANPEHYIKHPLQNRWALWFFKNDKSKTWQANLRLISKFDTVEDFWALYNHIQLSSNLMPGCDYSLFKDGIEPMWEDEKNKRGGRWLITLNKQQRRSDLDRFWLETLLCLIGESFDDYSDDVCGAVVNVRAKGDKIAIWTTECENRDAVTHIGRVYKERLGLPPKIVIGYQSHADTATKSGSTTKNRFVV
# testDetails: blockers of eIF4G binding by eIF4E – biochemical, TR-FRET, dose response (AID 855);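 note: potency for disrupting eIF4E binding to eIF4GI seen as loss of FRET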
# Assay type: functional
Active and inactive are the calls of the source.
recordedEndpoint: IC50

In: I am curious: what IC50 value has been reported for CN(C)c1ccc(/N=c2/sc3ccccc3n2C)cc1 ?
Out: > 64 µM (inactive)

In: Return reported IC50; argument: O=S1(=O)CC/C(=N/Nc2ccc(C(F)(F)F)cn2)c2cc(F)ccc21
Out: 50 µM (inactive)

In: Tell me the measured IC50 of C=CCn1c(-c2cc(OC)c(OC)c(OC)c2)n[nH]c1=S , please.
Out: > 64 µM (inactive)

In: # get_value(readout='IC50', item= CCOc1cccc(OCCCCn2ccnc2)c1 )
Out: > 64 µM (inactive)

In: Please look up its IC50: CC(=O)c1ccc2c(c1)C1C=CCC1C(C(=O)O)N2 (stereo unspecified)
Out: 50 µM (inactive)

In: Quick one: IC50 for COc1ccc(OC)c(-c2csc(NC(=O)Cn3[nH]c(=O)c4ccccc4c3=O)n2)c1 ?
Out: 50 µM (inactive)

---

# testTarget: Nonstructural protein 1 (Influenza A virus)
# Sequence (Q194T2 whole entry): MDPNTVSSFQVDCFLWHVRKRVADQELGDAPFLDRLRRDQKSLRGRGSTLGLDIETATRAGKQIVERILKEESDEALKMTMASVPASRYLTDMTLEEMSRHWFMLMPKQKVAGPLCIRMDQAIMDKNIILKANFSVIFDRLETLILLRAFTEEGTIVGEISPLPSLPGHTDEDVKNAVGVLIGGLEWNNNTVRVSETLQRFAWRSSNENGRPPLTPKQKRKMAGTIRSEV
# Assay type: functional, Influenza A virus (A/California/07/2009(H1N1))
Calls of active or inactive are those of the source.
Give measured IC50 for each item. Keep answers brief.

In: So what IC50 did Cc1cc(N2CCN(C3CCCCC3)CC2)nc2cccc(O)c12 get with Nonstructural protein 1 (Influenza A virus)?
Out: > 100 µM (active)

In: Nonstructural protein 1 (Influenza A virus) / IC50 / O=C(Nc1nc(-c2ccccn2)cs1)C1CC(=O)N(c2ccc3c(c2)OCCO3)C1 (stereo not drawn) : value?
Out: 13.5 µM (active)

In: Lab note: need IC50 for COc1ccc(/C=C2\CCC/C(=C\C=N\N(C)C)C2=O)cc1 on Nonstructural protein 1 (Influenza A virus), anyone have it?
Out: 50.6 µM (active)

In: Hello, I am looking for reported IC50 with Nonstructural protein 1 (Influenza A virus) for Cc1ccc(S(=O)(=O)N2CC(O)C[C@H]2C(=O)OCC(=O)Nc2ccc(N3CCCCC3)cc2)cc1C (stereo partly drawn) . Could you help?
Out: 62.8 µM (active)

In: Give Nonstructural protein 1 (Influenza A virus) IC50 for CC[n+]1c(/C=C/c2ccc(N(C)C)cc2)ccc2ccccc21
Out: 18.9 µM (active)

In: Query for Nonstructural protein 1 (Influenza A virus): what IC50 does the record show for CN(C)c1ccc(/N=c2/sc3ccccc3n2C)cc1 ?
Out: 23.9 µM (active)

In: Write down the reported IC50 of COc1ccc(N2CCN(C(CNS(=O)(=O)c3ccc(C)cc3)c3ccccc3)CC2)cc1 (stereo not drawn) , test system: Nonstructural protein 1 (Influenza A virus).
Out: > 100 µM (active)

In: # get_value(readout= IC50, system= Nonstructural protein 1 (Influenza A virus)) for O=C(NC(=S)NNC(=O)c1ccccc1O)c1cccs1
Out: 10.6 µM (active)

---

# testTarget: Ubiquitin-conjugating enzyme E2 N (Homo sapiens);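 note: Dose-response confirmation in a TR-FRET assay detecting UBC13-driven polyubiquitin chain formation, inhibition measured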
# Sequence (P61088 whole entry): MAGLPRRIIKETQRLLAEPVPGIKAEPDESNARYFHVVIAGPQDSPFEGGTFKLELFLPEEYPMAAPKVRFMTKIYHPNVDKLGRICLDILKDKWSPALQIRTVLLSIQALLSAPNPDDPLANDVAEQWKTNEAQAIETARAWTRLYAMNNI
# Assay type: functional
Calls of active or inactive are those of the source.
Your answer must be one of the following: TRUE for active, FALSE for inactive

In: What did this assay record as the result for Cc1ccc(NC(=O)CSc2ncnc3ccccc23)cc1S(=O)(=O)N1CCOCC1 ?
Out: FALSE

In: Could you please tell me the result logged for O=C(OCc1cccc([N+](=O)[O-])c1)c1cccnc1Cl in this assay?
Out: FALSE

In: Per the assay record, what outcome was assigned to CC[C@@H](C)[C@@H]1CN([C@@H](C)CN2CCC[C@H]2CN2C(N)=NC[C@@H]2Cc2ccccc2)C(=N)N1CCCC1CCCC1 ?
Out: FALSE

In: Please let me know the test result on file for N=c1n(CC(=O)c2ccc(Br)cc2)c2ccccc2n1Cc1ccccc1 .
Out: FALSE

In: Lab log entry: NCCCn1c(C(=O)c2cc(Cl)c(N)c(Cl)c2)c2ccccc2[n+]1[O-] — outcome as called in the assay?
Out: TRUE
